- system-name: P2X7 (Homo sapiens)
- assay: IL-1β release assay in THP-1 cells (sandwich ELISA)
- Assay type: cell-based
- Parameters: release of mature IL-1β in the culture medium of THP-1 cells; endogenous in cells; host or cells: THP-1 cells (PMA-differentiated, LPS-primed)
- condition-notes: PMA, LPS primed, stimulated with 0.8 mM BzATP, mature IL-1β release, read-out: hTHP-1/IL-ib IC50
- Experimental: The activation of P2X7 by ATP leads to a fast transient activation of cells resulting in influx of Ca^2+ followed by conversion of pro-IL-1β to active IL-1β. The functional activity of P2X7 compounds was measured by the release of mature IL-1β in the culture medium of THP-1 cells, detected by sandwich ELISA. […] The cells were centrifuged, supernatant was collected and the presence of mature IL-1β was detected using Dual human IL-1b kit following manufacturer's instruction. […]
pIC50: −log10 of the molar value.
measurement-type: pIC50

Worked examples, 5 compounds total:
O=C(NCC1CCC(F)(F)CC1)c1c(Cl)ccc2nc(C3CCOCC3)ccc12	6.30 to 7.00
O=C(NCC1(O)CCCC(F)(F)C1)c1c(Cl)ccc2nc(N3CC(F)(F)C3)ccc12 (centres unmarked)	6.30 to 7.00
C[C@@H]1CCC[C@](O)(CNC(=O)c2c(Cl)ccc3nc(N4CCC(F)C4)ccc23)C1 (some centres unmarked)	7.00 to 8.00
O=C(NCC1(O)CCCCCC1)c1c(Cl)ccc2ncccc12	6.30 to 7.00
CC(=O)NC1CCN(c2ccc3c(C(=O)NCC4CCC(F)(F)CC4)c(Cl)ccc3n2)C1 (centres unmarked)	6.30 to 7.00

For the compound O=C(NCC1CCC(F)(F)CC1)c1c(Cl)ccc2nc(N3CCC3)ccc12 , give its measured pIC50 value.
7.00 to 8.00

# return recorded pIC50 for input O=C(NCC1(O)CCCC(F)(F)C1)c1c(Cl)ccc2nc(N3CC[C@@H](F)C3)ccc12 (some centres unmarked)
7.00 to 8.00

For the compound C[C@@H]1CCC[C@](O)(CNC(=O)c2c(Cl)ccc3nc(N4CC[C@H](F)C4)ccc23)C1 , give its reported pIC50.
7.00 to 8.00

---

- system-name: P2X7 (Homo sapiens)
- assay: IL-1β release assay in THP-1 cells (sandwich ELISA)
- Assay type: cell-based
- Parameters: release of mature IL-1β in the culture medium of THP-1 cells; endogenous in cells; host or cells: THP-1 cells (PMA-differentiated, LPS-primed)
- condition-notes: PMA, LPS primed, stimulated with 0.8 mM BzATP, mature IL-1β release, read-out: hTHP-1/IL-ib IC50
measurement-type: IC50

Some solved cases for reference:
O=C(NCC1(O)CCCC(F)(F)C1)c1c(Cl)ccc2nc(N3CCC(F)C3)ccc12 (centres unmarked)	0.01 to 0.1 µM
O=C(NC[C@]1(O)CCCC(F)(F)C1)c1c(Cl)ccc2nc(N3CCC(F)(F)C3)ccc12	> 1 µM
O=C(NCC1CCC(F)(F)CC1)c1c(Cl)ccc2nc(N3CCC(N4CCCC4)C3)ccc12 (centres unmarked)	0.01 to 0.1 µM
O=C(NCC1CCC(F)(F)CC1)c1c(Cl)ccc2nc(C3CCCCC3)ccc12	0.101 to 0.5 µM
O=C(NCC1CCC(F)(F)CC1)c1c(Cl)ccc2nc(N3CCCC3)ccc12	0.101 to 0.5 µM
O=C(NCC1CCC(F)(F)CC1)c1c(Cl)ccc2nc(N3CCC(NCCO)C3)ccc12 (centres unmarked)	0.01 to 0.1 µM
C[C@@H]1CCC[C@](O)(CNC(=O)c2c(Cl)ccc3nc(N4CCC(N(C)C)C4)ccc23)C1 (some centres unmarked)	0.01 to 0.1 µM

Let us examine a further case.
Quickly give me recorded IC50 for O=C(NCC1CCC(F)(F)CC1)c1c(Cl)ccc2nc(N3CCC(CCO)C3)ccc12 (centres unmarked)
0.01 to 0.1 µM

---

Measured pIC50 values are reported for all entries that follow.
- system-name: P2X7 (Homo sapiens, UniProt Q99572)
- Sequence (Q99572 whole entry): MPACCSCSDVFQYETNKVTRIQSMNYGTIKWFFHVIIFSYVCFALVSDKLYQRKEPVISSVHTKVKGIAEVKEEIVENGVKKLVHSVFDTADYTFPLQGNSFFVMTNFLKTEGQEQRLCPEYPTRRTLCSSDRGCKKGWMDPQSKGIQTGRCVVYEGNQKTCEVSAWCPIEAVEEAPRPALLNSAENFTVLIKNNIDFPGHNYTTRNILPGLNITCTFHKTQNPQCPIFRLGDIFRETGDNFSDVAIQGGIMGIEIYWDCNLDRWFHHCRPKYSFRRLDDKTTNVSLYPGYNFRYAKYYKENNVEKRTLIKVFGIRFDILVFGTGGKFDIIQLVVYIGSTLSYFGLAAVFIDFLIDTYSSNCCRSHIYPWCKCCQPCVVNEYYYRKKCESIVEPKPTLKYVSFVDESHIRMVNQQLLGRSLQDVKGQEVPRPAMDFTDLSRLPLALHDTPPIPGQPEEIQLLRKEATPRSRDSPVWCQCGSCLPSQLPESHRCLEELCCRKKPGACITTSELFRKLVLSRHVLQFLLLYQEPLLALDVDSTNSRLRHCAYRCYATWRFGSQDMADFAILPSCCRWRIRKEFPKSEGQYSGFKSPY
- assay: Pore permeation assay (YO PRO dye uptake, BzATP-induced)
- Type: cell-based
- Set-up: expressed in transfected cells; host or cells: HEK293
- condition-notes: HEK293 transfected with human P2X7 receptor; YO PRO dye 1 uM, BzATP 10 uM; read-out: hP2X7 IC50
- Method: Agonist-induced pore formation was determined by measuring cellular uptake of YO PRO fluorescence dye in HEK293 transfected with human P2X7 receptor. […] The viability of cells was determined by Trypan blue dye and the cells are plated @ 10,000 cell/well in 50 ul volume in a 384 W BD Poly lysine coated plate and incubated overnight at 37 C. […] The uptake of YO PRO dye into the cells was measured using Envision Fluorescence plate reader instrument (Perkin Elmer).
pIC50: −log10 of the molar value.

// worked examples, pIC50 included
O=C(NCC1CCC(F)(F)CC1)c1c(Cl)ccc2nc(C3=CCOCC3)ccc12 [Compound 31]	7.00 to 8.00
CN(CCO)c1ccc2c(C(=O)NCC3CCC(F)(F)CC3)c(Cl)ccc2n1 [Compound 73]	7.00 to 8.00
CCOC(=O)C1CCCN(c2ccc3c(C(=O)NCC4CCC(F)(F)CC4)c(Cl)ccc3n2)C1 (centres unmarked) [Compound 55]	7.00 to 8.00

Consider the molecule CC(C)(C)OC(=O)N1CCC(c2ccc3c(C(=O)NCC4CCC(F)(F)CC4)c(Cl)ccc3n2)CC1 [Compound 71] . State its measured pIC50.
7.00 to 8.00

Fill in pIC50 for record C[C@@H]1CCC[C@](O)(CNC(=O)c2c(Cl)ccc3nc(N4CC[C@H](N(C)C)C4)ccc23)C1 [Compound 4]
> 8.00

Return pIC50 (reported value) for this molecule: O=C(NCC1CCC(F)(F)CC1)c1c(Cl)ccc2nc(N3CCC(N4CCCC4)C3)ccc12 (centres unmarked) [Compound 30]
7.00 to 8.00

Supply measured pIC50 of O=C(NCC1CCC(F)(F)CC1)c1c(Cl)ccc2nc(C3CCCC3)ccc12 [Compound 43] in your reply.
7.00 to 8.00

Specify measured pIC50 for CC(=O)NC1CCN(c2ccc3c(C(=O)NCC4CCC(F)(F)CC4)c(Cl)ccc3n2)C1 (centres unmarked) [Compound 67] .
7.00 to 8.00

// fetch pIC50 given entry O=C(NCC1CCC(F)(F)CC1)c1c(Cl)ccc2nc(N3CCC(F)(F)C3)ccc12 [Compound 58]
7.00 to 8.00

Read off the recorded pIC50 for CC(C)(C)OC(=O)N1CC=C(c2ccc3c(C(=O)NCC4CCC(F)(F)CC4)c(Cl)ccc3n2)CC1 [Compound 51]
7.00 to 8.00

Specify measured pIC50 for O=C(NCC1CCC(F)(F)CC1)c1c(Cl)ccc2nc(N3CCC(CO)C3)ccc12 (centres unmarked) [Compound 45] .
7.00 to 8.00

Write down pIC50 measured for item O=C(NCC1CCC(F)(F)CC1)c1c(Cl)ccc2nc(CCCO)ccc12 [Compound 64]
7.00 to 8.00

Check the records and state pIC50 for O=C(NCC1(O)CCCC(F)(F)C1)c1c(Cl)ccc2nc(N3CCC(F)C3)ccc12 (centres unmarked) [Compound 38]
7.00 to 8.00

Identify measured pIC50 associated with O=C(NC[C@]1(O)CCCC(F)(F)C1)c1c(Cl)ccc2nc(N3CCC(F)(F)C3)ccc12 [Compound 80]
6.30 to 7.00

---

- system-name: UniProtKB Q99572
- assay: Pore permeation assay (YO PRO dye uptake, BzATP-induced)
- Assay type: cell-based
- Parameters: expressed in transfected cells; host or cells: HEK293
- condition-notes: HEK293 transfected with human P2X7 receptor; YO PRO dye 1 uM, BzATP 10 uM; read-out: hP2X7 IC50
pIC50: −log10 of the molar value.
measurement-type: pIC50

O=C(NCC1CCCC(F)(F)C1)c1c(Cl)ccc2nc(N3CCC(CCO)C3)ccc12 (stereo not shown)	7.00 to 8.00
O=C(NCC1CCCC(F)(F)C1)c1c(Cl)ccc2nc(N3CC[C@H](F)C3)ccc12 (stereo partly shown)	> 8.00
C[C@@H]1CCC[C@](O)(CNC(=O)c2c(Cl)ccc3nc(N4CC[C@@H](F)C4)ccc23)C1	> 8.00

Enter measured pIC50, system UniProtKB Q99572, for the compound shown: CN(C)c1ccc2c(C(=O)NCC3CCC(F)(F)CC3)c(Cl)ccc2n1
7.00 to 8.00

Enter pIC50 (test system UniProtKB Q99572) for O=C(NCC1(O)CCCC(F)(F)C1)c1c(Cl)ccc2nc(N3CC[C@H](F)C3)ccc12 (stereo partly shown)
7.00 to 8.00

Provide pIC50, system UniProtKB Q99572, entry O=C(NCC1CCC(F)(F)CC1)c1c(Cl)ccc2nc(N3CC[C@H](CCO)C3)ccc12
> 8.00

Report measured pIC50 on UniProtKB Q99572; entry: C[C@@H]1CCC[C@](O)(CNC(=O)c2c(Cl)ccc3nc(N4CCC(F)(F)C4)ccc23)C1
> 8.00
